- measurement-target: 5-HT3AB receptor, 5-HT3B subunit Y143A (Homo sapiens, UniProt O95264+P46098, Y136A)
- Sequence (P46098 24-478): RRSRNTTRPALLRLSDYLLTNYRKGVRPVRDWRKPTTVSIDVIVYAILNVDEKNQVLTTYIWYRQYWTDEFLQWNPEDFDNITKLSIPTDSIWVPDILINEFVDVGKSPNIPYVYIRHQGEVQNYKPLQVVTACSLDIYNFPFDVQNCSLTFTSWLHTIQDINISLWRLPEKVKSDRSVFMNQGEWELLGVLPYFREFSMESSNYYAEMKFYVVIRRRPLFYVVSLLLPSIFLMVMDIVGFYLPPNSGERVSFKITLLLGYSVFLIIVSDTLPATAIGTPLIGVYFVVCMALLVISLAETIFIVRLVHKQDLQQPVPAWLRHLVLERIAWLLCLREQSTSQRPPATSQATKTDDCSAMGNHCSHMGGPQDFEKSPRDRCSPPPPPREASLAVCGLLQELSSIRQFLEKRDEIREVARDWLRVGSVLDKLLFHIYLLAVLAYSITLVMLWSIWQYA
- Sequence (O95264 22-441 Y136A): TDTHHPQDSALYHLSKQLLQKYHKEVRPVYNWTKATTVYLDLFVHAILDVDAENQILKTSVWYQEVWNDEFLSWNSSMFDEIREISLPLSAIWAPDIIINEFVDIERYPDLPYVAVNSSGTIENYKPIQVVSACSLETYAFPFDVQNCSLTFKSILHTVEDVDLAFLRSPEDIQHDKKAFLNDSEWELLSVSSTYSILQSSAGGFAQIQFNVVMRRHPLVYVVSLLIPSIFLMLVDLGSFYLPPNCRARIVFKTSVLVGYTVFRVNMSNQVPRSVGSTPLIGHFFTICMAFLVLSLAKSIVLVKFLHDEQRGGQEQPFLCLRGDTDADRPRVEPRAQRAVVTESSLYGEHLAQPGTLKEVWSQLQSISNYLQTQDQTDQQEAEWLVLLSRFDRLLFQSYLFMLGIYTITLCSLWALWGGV
- method-summary: radioligand saturation binding, transfected HEK293 membranes
- experimental-parameters: [3H]-palonosetron saturation, 5-HT3AB with 5-HT3B Y143A, 4 °C, 24 h
measured-property: Kd (pM)
Answers are plain numbers, in pM.

## Input Looking for the measured Kd of O=C1c2cccc3c2[C@H](CCC3)CN1[C@@H]1CN2CCC1CC2 , can you help?
## Output 180
